Reference source for all entries: paper PMC8667904

# measured-on: DENVC (dengue virus capsid protein) (Dengue virus 2 Thailand/NGS-C/1944)
# Construct: mature capsid protein C from the N-terminus of the dengue virus genome polyprotein; pET3a, E. coli BL21(DE3)pLysS, heparin column; symmetric homodimer; printed residues reach R100
# Sequence (P14340 1-100): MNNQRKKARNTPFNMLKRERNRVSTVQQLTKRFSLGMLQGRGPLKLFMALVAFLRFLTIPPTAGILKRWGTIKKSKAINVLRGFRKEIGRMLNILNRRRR
# assay-summary: intrinsic tryptophan fluorescence titration, shift of emission maximum
measured-attribute: Kd (µM)
Give bare numbers, in µM.

Worked examples follow.
>>> numeric_result("O/N=C/c1cc(Cl)ccc1O [compound 12, 2-hydroxy-5-chloro-benzyloxime]")
23
>>> numeric_result("N=C(N)N/N=C/c1ccc(Br)s1 [compound 4, 5-bromo-thiophene-2-guanylhydrazone]")
20

Recall and state the measured Kd for N=C(N)NN=Cc1cc(Cl)ccc1O [compound 1, 5-chloro-salicylaldehyde-guanylhydrazone] . 18
